test method notes: RSV HEP2-CC50-384-V2 (per Ex. V)
Type: cell-based
test settings: human
Assignment: determine reported CC50 at 3 days for the given compounds.

Prompt: I would be grateful if you could share the reported CC50 at 3 days for CCCCCCCCCCCCCC[C@@H](COP(=O)(O)OC[C@@]1(C#N)O[C@@H](c2ccc3c(N)ncnn23)[C@H](O)[C@@H]1O)OCc1cc(F)cc(C#N)c1 .
Completion: > 50 µM

Prompt: I would be grateful if you could share the reported CC50 at 3 days for CCCCCCCCCCCCCCCCCCOC[C@H](COP(=O)(O)OC[C@@]1(C#N)O[C@@H](c2ccc3c(N)ncnn23)[C@H](O)[C@@H]1O)OCc1ccc(C#N)c(-n2cncn2)c1 .
Completion: > 41.5 µM

Prompt: I would be grateful if you could share the reported CC50 at 3 days for CCCCCCCCCCCCCCCCCCOC[C@H](COP(=O)(O)OC[C@@]1(C#N)O[C@@H](c2ccc3c(N)ncnn23)[C@H](O)[C@@H]1O)OCc1cc(F)cc(C#N)c1 .
Completion: > 31.2 µM

Prompt: I would be grateful if you could share the reported CC50 at 3 days for CCCCCCCCCCCCCCCCCC[C@@H](COP(=O)(O)OC[C@@]1(C#N)O[C@@H](c2ccc3c(N)ncnn23)[C@H](O)[C@@H]1O)OCc1cc(F)cc(C#N)c1 .
Completion: > 38.1 µM

Prompt: I would be grateful if you could share the reported CC50 at 3 days for CCCCCCCCCCCCCCCCCCOC[C@H](COP(=O)(O)OC[C@@]1(C#N)O[C@@H](c2ccc3c(N)ncnn23)[C@H](O)[C@@H]1O)OCc1ccc(C#N)nc1 .
Completion: 46.4 µM

---

test method notes: RSV HEP2-CC50-384-V2 (per Ex. V)
Assay type: cell-based
test settings: human
Assignment: determine reported CC50 at 3 days for the given compounds.

Prompt: I would be grateful if you could share the reported CC50 at 3 days for CCCCCCCCCCCCCCCCCCC[C@H](COP(=O)(O)OC[C@@]1(C#N)O[C@@H](c2ccc3c(N)ncnn23)[C@H](O)[C@@H]1O)Oc1ccc(C#N)c(F)c1 .
Completion: > 50 µM

Prompt: I would be grateful if you could share the reported CC50 at 3 days for CCCCCCCCCCCCCCOC[C@H](COP(=O)(O)OC[C@@]1(C#N)O[C@@H](c2ccc3c(N)ncnn23)[C@H](O)[C@@H]1O)Oc1cc(C#N)ccn1 .
Completion: > 50 µM

Prompt: I would be grateful if you could share the reported CC50 at 3 days for CCCCCCCCCCCCCCCOC[C@H](COP(=O)(O)OC[C@@]1(C#N)O[C@@H](c2ccc3c(N)ncnn23)[C@H](O)[C@@H]1O)OCc1cc(F)cc(C#N)c1 .
Completion: 42.3 µM

Prompt: I would be grateful if you could share the reported CC50 at 3 days for CCCCCCCCCCCCCCCCCCC[C@H](COP(=O)(O)OC[C@@]1(C#N)O[C@@H](c2ccc3c(N)ncnn23)[C@H](O)[C@@H]1O)OCc1ccc(-n2cncn2)c(C#N)c1 .
Completion: 33.1 µM

Prompt: I would be grateful if you could share the reported CC50 at 3 days for CCCCCCCCCCCCCCCCCCOC[C@H](COP(=O)(O)OC[C@@]1(C#N)O[C@@H](c2ccc3c(N)ncnn23)[C@H](O)[C@@H]1O)OCc1ccc(C#N)c(Cl)c1 .
Completion: > 49.9 µM

Prompt: I would be grateful if you could share the reported CC50 at 3 days for CCCCCCCCCCCCCCCCCCOC[C@@H](COP(=O)(O)OC[C@@]1(C#N)O[C@@H](c2ccc3c(N)ncnn23)[C@H](O)[C@@H]1O)Oc1ccc(C#N)nc1 .
Completion: > 49.9 µM

Prompt: I would be grateful if you could share the reported CC50 at 3 days for CCCCCCCCCCCCCCCCC[C@@H](COP(=O)(O)OC[C@@]1(C#N)O[C@@H](c2ccc3c(N)ncnn23)[C@H](O)[C@@H]1O)OCc1cc(F)cc(C#N)c1 .
Completion: 28 µM

Prompt: I would be grateful if you could share the reported CC50 at 3 days for CCCCCCCCCCCCCCCCOC[C@@H](COP(=O)(O)OC[C@@]1(C#N)O[C@@H](c2ccc3c(N)ncnn23)[C@H](O)[C@@H]1O)OCc1ccccc1 .
Completion: > 50 µM

Prompt: I would be grateful if you could share the reported CC50 at 3 days for CCCCCCCCCCCCCCOC[C@H](COP(=O)(O)OC[C@@]1(C#N)O[C@@H](c2ccc3c(N)ncnn23)[C@H](O)[C@@H]1O)Oc1ccc(C#N)cn1 .
Completion: > 50 µM

Prompt: I would be grateful if you could share the reported CC50 at 3 days for CCCCCCCCCCCCCCCCC[C@H](COP(=O)(O)OC[C@@]1(C#N)O[C@@H](c2ccc3c(N)ncnn23)[C@H](O)[C@@H]1O)OCc1cc(Cl)cc(C#N)c1 .
Completion: 33.7 µM

Prompt: I would be grateful if you could share the reported CC50 at 3 days for CCCCCCCCCCCCCCC[C@H](COP(=O)(O)OC[C@@]1(C#N)O[C@@H](c2ccc3c(N)ncnn23)[C@H](O)[C@@H]1O)OCc1cc(F)cc(C#N)c1 .
Completion: > 50 µM

---

test method notes: RSV NHBE CC50 384 V2 (per Ex. U)
Format: cell-based
test settings: human
Each entry falls in a class defined on CC50 at 3 days; the bands are lower range = under 2 µM, middle range = from 2 µM up to 5 µM, upper range = 5 µM and over

Prompt: # bin label for CCCCCCCCCCCCCCCCCC[C@@H](COP(=O)(O)OC[C@@]1(C#N)O[C@@H](c2ccc3c(N)ncnn23)[C@H](O)[C@@H]1O)OCc1cc(F)cc(C#N)c1 [Compound 37]
Completion: middle range

Prompt: # bin label for CCCCCCCCCCCCCCCCOC[C@@H](COP(=O)(O)OC[C@@]1(C#N)O[C@@H](c2ccc3c(N)ncnn23)[C@H](O)[C@@H]1O)OCc1ccccc1 [Compound 92]
Completion: upper range

Prompt: # bin label for CCCCCCCCCCCCCCC[C@H](COP(=O)(O)OC[C@@]1(C#N)O[C@@H](c2ccc3c(N)ncnn23)[C@H](O)[C@@H]1O)OCc1cc(F)cc(C#N)c1 [Compound 80]
Completion: middle range

Prompt: # bin label for CCCCCCCCCCCCCC[C@@H](COP(=O)(O)OC[C@@]1(C#N)O[C@@H](c2ccc3c(N)ncnn23)[C@H](O)[C@@H]1O)OCc1cc(F)cc(C#N)c1 [Compound 86]
Completion: middle range

Prompt: # bin label for CCCCCCCCCCCCCCOC[C@H](COP(=O)(O)OC[C@@]1(C#N)O[C@@H](c2ccc3c(N)ncnn23)[C@H](O)[C@@H]1O)OCc1ccc(C#N)cc1F [Compound 75]
Completion: middle range

Prompt: # bin label for CCCCCCCCCCCCCCCCCC[C@H](COP(=O)(O)OC[C@@]1(C#N)O[C@@H](c2ccc3c(N)ncnn23)[C@H](O)[C@@H]1O)OCc1cc(Cl)cc(C#N)c1 [Compound 81]
Completion: middle range

Prompt: # bin label for CCCCCCCCCCCCCCCCCCC[C@H](COP(=O)(O)OC[C@@]1(C#N)O[C@@H](c2ccc3c(N)ncnn23)[C@H](O)[C@@H]1O)OCc1ccc(-n2cncn2)c(C#N)c1 [Compound 30]
Completion: lower range

Prompt: # bin label for CCCCCCCCCCCCCCCCCCC[C@H](COP(=O)(O)OC[C@@]1(C#N)O[C@@H](c2ccc3c(N)ncnn23)[C@H](O)[C@@H]1O)OCc1cc(Cl)cc(C#N)c1 [Compound 82]
Completion: upper range

Prompt: # bin label for CCCCCCCCCCCCCCCCCCOC[C@H](COP(=O)(O)OC[C@@]1(C#N)O[C@@H](c2ccc3c(N)ncnn23)[C@H](O)[C@@H]1O)OCc1ccc(C#N)c(Cl)c1 [Compound 7]
Completion: upper range

Prompt: # bin label for CCCCCCCCCCCCCCCCCCOC[C@H](COP(=O)(O)OC[C@@]1(C#N)O[C@@H](c2ccc3c(N)ncnn23)[C@H](O)[C@@H]1O)Oc1ccc(C#N)c(OC(C)C)c1 [Compound 23]
Completion: upper range

Prompt: # bin label for CCCCCCCCCCCCCCCCCCC[C@@H](COP(=O)(O)OC[C@@]1(C#N)O[C@@H](c2ccc3c(N)ncnn23)[C@H](O)[C@@H]1O)OCc1cc(F)cc(C#N)c1 [Compound 31]
Completion: lower range

---

test method notes: HCV Replicon 2A CC50, calcein AM (Example Q)
Type: cell-based
test settings: HCV replicon cells (2A), calcein AM fluorescence, read-out: HCV Replicon 2A CC50 (nM) (per Ex. Q)
metric name: CC50 at 3 days (nM)
# value in nM; strip the unit string

Prompt: I would be grateful if you could share the reported CC50 at 3 days for CCCCCCCCCCCCCCCCCCC[C@H](COP(=O)(O)OC[C@@]1(C#N)O[C@@H](c2ccc3c(N)ncnn23)[C@H](O)[C@@H]1O)OCc1cc(Cl)cc(C#N)c1 .
Completion: 37600

Prompt: I would be grateful if you could share the reported CC50 at 3 days for CCCCCCCCCCCCCCCCCOC[C@H](COP(=O)(O)OC[C@@]1(C#N)O[C@@H](c2ccc3c(N)ncnn23)[C@H](O)[C@@H]1O)OCc1cc(F)cc(C#N)c1 .
Completion: 36200
